Test system: DeltatarO mutant
Assay: S. aureus survival, RN4220 and DeltatarO strains – OD600, teichoic acid synthesis inhibitors, primary screen (AID 463173)
Conditions: S. aureus RN4220 wild type/DeltatarO growth, OD600, 18 h, hits give low values, screened at 18.75 µg/mL (by protocol)
Hit rate of the full screen: of about 52,000 compounds, about 4,300 (8.3%) were called active. Only a selection was taken, and actives are over-represented in it overall.
Label yes when survival is strictly below 80%; at or above that, label no.

Please indicate whether the reported survival of CC(C)(C)c1ccc(C(=O)N(Cc2ccc(F)cc2)Cc2ccco2)cc1 is strictly below 80%.
yes

Next record, please: COc1cccc(C(=O)Nc2ccc3nc(SCc4ccc(C)cc4)sc3c2)c1
yes

Next record, please: O=C(c1cc2ccccc2oc1=O)N(Cc1ccc(F)cc1)Cc1ccco1
yes

Next record, please: COc1ccc2sc(N)nc2c1
no

Next record, please: COC(=O)c1ccc(-c2nc3ccc(C)cc3o2)cc1
no

Next record, please: COc1ccc(NC(=O)CN2C(=O)CCn3nc(-c4cccn4C)cc32)cc1Cl
no

Next record, please: O=S(=O)(Nc1ccc2nc(-c3ccc(F)cc3)oc2c1)c1ccccc1
yes

Next record, please: COc1ccc(C(=O)Nc2ccc3nc(SCc4ccc(C)cc4)sc3c2)cc1
no

Next record, please: O=S(=O)(Nc1ccc(-c2nc3ccccc3o2)cc1)c1ccccc1
yes

Next record, please: O=C(c1cc2ccccc2oc1=O)N(Cc1ccc(F)cc1)C1CC1
no

Next record, please: Cc1ccc(S(=O)(=O)Nc2ccc3nc(-c4cccc(Cl)c4)oc3c2)cc1
yes

###

Tested on: DeltatarO mutant
Test: S. aureus survival, RN4220 and DeltatarO strains – OD600, teichoic acid synthesis inhibitors, primary screen (AID 463173)
Conditions: S. aureus RN4220 wild type/DeltatarO growth, OD600, 18 h, hits give low values, screened at 18.75 µg/mL (by protocol)
In all, about 52,000 compounds went through this assay and about 4,300 (8.3%) were called active. The sample holds actives, similar compounds and a random draw of the others, so the mix is not that of the screen.
Label scheme for survival: class 1 (below 70%), class 2 (70% to below 90%), class 3 (90% or more)

> print(dat)
                               compound  category.label
1  O=C(Nc1ccc(F)cc1F)C1CCN(c2ncccn2)CC1         class 1

Would you mind sorting CC(C)NC(=O)Nc1ccc2c(c1)N(C)C(=O)c1ccccc1S2 into the appropriate category?
class 3

Next record, please: CC1=C(C(=O)OCC2CCCCC2)C(c2ccc(Cl)cc2Cl)CC(=O)N1 (stereo not given)
class 2

Next record, please: COc1ccccc1N1CCN(C(=O)c2c3c(nc4ccccc24)C(=O)N(C2CCCCC2)C3)CC1
class 3

Next record, please: Cc1ccc2c(c1C)NC(=O)CC2c1ccc(Cl)cc1Cl (stereo not given)
class 1

Next record, please: COc1cccc(C2CC(=O)Nc3c2ccc(C)c3C)c1OC (stereo not given)
class 3

Next record, please: Cc1ccc(CNC(=O)Cn2c(=O)n(-c3ccc(C)c(F)c3)c(=O)c3sc4ccccc4c32)cc1
class 2

###

Test system: DeltatarO mutant
Assay: S. aureus survival, RN4220 and DeltatarO strains – OD600, teichoic acid synthesis inhibitors, primary screen (AID 463173)
Settings: S. aureus RN4220 wild type/DeltatarO growth, OD600, 18 h, screened at 18.75 µg/mL (by protocol)
Out of some 52,000 compounds screened, about 4,300 (8.3%) were called active. No stated cut-off is given here; in the data, active means survival mostly below about 52% (no sharp cut-off); inactive means mostly above about 56%. The sample holds actives, similar compounds and a random draw of the others, so the mix is not that of the screen.
Answer with one of the outcomes active, inactive

These solved cases illustrate the format of a correct answer.
> print(dat)
                                   compound  category.label
1      Cc1nc2ccccn2c(=O)c1NC(=O)c1cccc(F)c1        inactive
2  Cc1cccc(C(=O)Nc2c(-c3ccccc3)nc3cc(C)ccn23)c1          active
3    CC(=O)N1CCc2cc(C(=O)C[n+]3ccccc3)ccc21        inactive
4  CCOC(=O)c1ccc(N2C(=O)c3n[nH]c(-c4ccco4)c3C2c2ccc(O)c(OC)c2)cc1 (stereo not given)        inactive

Okay, now this compound:
Assay result, entry CCOC(=O)c1ccc(N2C(=O)c3n[nH]c(-c4ccco4)c3C2c2ccc(OCC)cc2)cc1 (stereo not given) — outcome?
inactive

###

# survival annotations
Test system: DeltatarO mutant
Test: S. aureus survival, RN4220 and DeltatarO strains – OD600, teichoic acid synthesis inhibitors, primary screen (AID 463173)
Conditions: S. aureus RN4220 wild type/DeltatarO growth, OD600, 18 h, hits give low values, screened at 18.75 µg/mL (by protocol)
In all, about 52,000 compounds went through this assay and about 4,300 (8.3%) were called active. The sample holds actives, similar compounds and a random draw of the others, so the mix is not that of the screen.

Field: example entries. Status: answers known.
> print(dat)
                                   molecule  experimental.readout  endpoint.value
1  Cc1ccc(N(Cc2cccs2)C(=O)c2ccc(OC(C)C)cc2)cc1              survival  95% (inactive)
2      O=C(c1ccc(Cl)cc1)N(Cc1ccco1)Cc1ccco1              survival  97% (inactive)
3  COc1ccc(C2=Nn3c([n+](C)c4ccccc43)SC2)cc1              survival     0% (active)

I have this molecule here, Cc1ccc(-c2nnc(Nc3ccc(C(N)=O)cc3)c3ccccc23)cc1S(=O)(=O)N1CCCCC1 , and I need its recorded survival.
128% (inactive)

Next record, please: CCOC(=O)c1c(Oc2ccc(C(=O)OC)cc2)nnc(-c2ccccc2)c1-c1ccccc1
74% (inactive)

Next record, please: CCOC(=O)c1c(C)oc2nc(C)nc(Nc3cccc(OC)c3)c12
78% (inactive)

Next record, please: Cc1ccc(-c2nnc(Nc3cccc(O)c3)c3ccccc23)cc1S(=O)(=O)N1CCCCC1
60% (inactive)

Next record, please: CNC(=O)c1ccc(Nc2nnc(-c3ccc(C)c(S(=O)(=O)N4CCOCC4)c3)c3ccccc23)cc1
61% (inactive)

Next record, please: CCOC(=O)c1c(Nc2cccc(O)c2)nnc(-c2ccccc2)c1-c1ccccc1
31% (active)

Next record, please: CCOc1ccc(-c2noc(CSc3nnc(-c4ccccc4)n3-c3ccccc3)n2)cc1
66% (inactive)

###

System: DeltatarO mutant
Experiment: S. aureus survival, RN4220 and DeltatarO strains – OD600, teichoic acid synthesis inhibitors, primary screen (AID 463173)
Details: S. aureus RN4220 wild type/DeltatarO growth, OD600, 18 h, screened at 18.75 µg/mL (by protocol)
The campaign covered roughly 52,000 compounds. About 4,300 (8.3%) were called active. No stated cut-off is given here; in the data, active means survival mostly below about 52% (no sharp cut-off); inactive means mostly above about 56%. This is one part of a sample in which actives are shown more often than they occur.
Answer with one of the outcomes yes (1) = active, no (0) = inactive

> print(dat)
                                   molecule       target.desc  category.label
1  COc1cccc(NC(=O)CCNS(=O)(=O)c2ccc3c(c2)oc(=O)n3C)c1  DeltatarO mutant          no (0)
2    CCOc1ccc(NC(=O)CCNS(=O)(=O)c2cccs2)cc1  DeltatarO mutant          no (0)

Assay result, entry Cc1ccc(NC(=O)CCNS(=O)(=O)c2ccc(Br)s2)cc1 — outcome?
yes (1)

Next record, please: CCOc1ccc(NC(=O)CNS(=O)(=O)c2ccc(Br)s2)cc1
no (0)

Next record, please: Cc1ccc(CNc2ncnc3c2c(-c2ccccc2)cn3-c2ccccc2)cc1
no (0)

Next record, please: CCc1cccc(NC(=O)C2CCC(CNS(=O)(=O)c3ccc(Br)s3)CC2)c1 (stereo not given)
no (0)

Next record, please: Cc1cccc(NC(=O)C2CCC(CNS(=O)(=O)c3ccc(Br)s3)CC2)c1 (stereo not given)
yes (1)

Next record, please: CCSc1nc(-c2ccc(Cl)cc2)nc2c1Cc1c(CO)cnc(C)c1O2
yes (1)

Next record, please: COc1cccc(NC(=O)CCNS(=O)(=O)c2ccc(Br)s2)c1
yes (1)

Next record, please: COc1cccc(CNC(=O)C2CCC(CNS(=O)(=O)c3ccc(Br)s3)CC2)c1 (stereo not given)
no (0)

###

Tested on: DeltatarO mutant
Experiment: S. aureus survival, RN4220 and DeltatarO strains – OD600, teichoic acid synthesis inhibitors, primary screen (AID 463173)
Details: S. aureus RN4220 wild type/DeltatarO growth, OD600, 18 h, hits give low values, screened at 18.75 µg/mL (by protocol)
Screen size: about 52,000 compounds; about 4,300 (8.3%) were called active. The full list was thinned out, with actives kept by preference.
Label t when survival is strictly below 80%; at or above that, label f.

Please indicate whether the reported survival of CCn1c(NN)nc2sc3c(c2c1=O)CC(C)(C)OC3 is strictly below 80%.
f

Next record, please: CCOc1ccccc1N(C)C(=O)c1cc2c(s1)-c1ccccc1OC2
t
